- Test system: TK-10
- assay: NCI tumour cell line growth inhibition, 48 h
Active and inactive are the calls of the source. No stated cut-off is given here; in the data, active = GI50 up to about 1.1 µM and inactive = higher.
Answer with one of the outcomes active, inactive

Tell me the recorded outcome of this test for COc1cc([C@@H]2OC[C@@H]3C(c4cc(OC)c5c(c4)OCO5)OC[C@@H]32)cc(OC)c1OC (stereo partly specified) . inactive

Outcome logged for CC1(c2ccc(Cl)cc2)N=C(NCCO)c2ccccc21 (stereo unspecified) in this assay: inactive

Check the results log: what was the call for CCOC(=O)CC[C@H](NC(=O)N[C@H](C)c1ccccc1)C(=O)OCC ? inactive

Per the records of this test, what outcome belongs to O=C(c1ccccc1)c1nnn(Cc2cccc(Cl)c2)c1C(=O)c1ccccc1 ? inactive

Write down the call the test reported for this compound. Item: O=C(O)CNCP(=O)(O)O [GLYPHOSATE] inactive

Given CC1CCCCNC1=S (stereo unspecified) , state the outcome it received in this test. inactive

Which outcome did this test record for the compound COC[C@@H]1[C@H]2OC(C)(C)O[C@H]2C(=O)N1C(=O)c1ccc(OC)cc1 ? inactive

Each compound tested received a call. Report the one for NCCC1([N+](=O)[O-])C=CN=CC1 (stereo unspecified) . inactive

Could you check what this test reported for NCCC1CN(C(=O)OCc2ccccc2)c2ccccc21 (stereo unspecified) ? inactive

Can you look up the reported call for COc1ccc(C2CC(C)=Nc3c(O)nc(S)nc3N2)cc1 (stereo unspecified) for me? inactive

Please state the recorded outcome for this compound: Cc1ccc(C2=Nn3c(nc4sc(C)c(C)c4c3=O)SC2)cc1 inactive

How did this test come out for O=C1CC(CC(O)[C@@H]2CCCC[C@@H]2O)CC(=O)N1c1ccccc1 (stereo partly specified) ? inactive

Tell me the recorded outcome of this test for Brc1ccc2c([C@H]3CN[C@@H](c4c[nH]c5cc(Br)ccc45)CN3)c[nH]c2c1 . inactive

Any idea what this test logged for CC1OC(Oc2c(-c3cc(O)c(O)c(O)c3)oc3cc(O)cc(O)c3c2=O)C(O)C(O)C1O (stereo unspecified) ? inactive

How was CC(=O)OC1COC(N2C(=O)C(=O)c3c(C)cc(Cl)nc32)C(OC(C)=O)C1OC(C)=O (stereo unspecified) classified in this test? inactive

Tell me the recorded outcome of this test for Oc1ccc(N=C2CCC(=C(c3ccccc3)c3ccc(Nc4ccc(O)cc4)cc3)CC2)cc1 . inactive

Could you please tell me the result logged for CNC(=O)/C=C/C1=CN2C(=O)c3ccc(C)c(O)c3NC(OC)C2C1 (stereo unspecified) in this assay? active

Dear colleague, could you share the recorded outcome for c1ccc2c(c1)/C(=N\NC1=NCCN1)c1nc3ccccc3nc1-2 when you have a moment? inactive

Would you mind telling me which call this test gave O=C1/C(=C\c2ccccc2)c2ccccc2N1Cc1ccccc1 ? inactive

Please let me know the test result on file for N#CCCN(c1ccc(/C=N/c2ccccc2)cc1)S(=O)(=O)c1ccccc1 . inactive

I'd appreciate the recorded outcome for Cc1cccc(/C=N/C23CC4CC(CC(C4)C2)C3)c1 from this test. inactive

----------
- System: HL-60
- assay: NCI tumour cell line growth inhibition, 48 h
Active and inactive are the calls of the source. No stated cut-off is given here; in the data, active = GI50 up to about 1.1 µM and inactive = higher. Residues, ends and D or L forms follow the SMILES beside them. *: point of attachment. Boc = CC(C)(C)OC(=O)*; Bz = O=C(c1ccccc1)*
Entry note: the call must match one of label 1 (active), label 0 (inactive)

Recorded call for O=c1nc2n(c3nsnc13)CCO2 ? label 0

State the result this test recorded for CN(CCNC(=O)c1c[nH]c2c1Cc1ccccc1-2)CCNC(=O)c1c[nH]c2c1Cc1ccccc1-2 . label 0

So what was the verdict on COc1ccc(C2Oc3ccc(O)cc3[C@@H]2C)cc1OC (stereo not given in full) in this test? label 0

Record lookup: outcome of this test for CC(NC(=O)C(Cc1ccc(OC(=O)c2ccccc2)cc1)NC(=O)OC(C)(C)C)C(=O)NC(Cc1ccccc1)C(=O)NCC(N)=O (stereo not given) (Boc-Y(Bz)AFG-NH2; configuration not given here) ? label 0

Record request — test call for c1csc(-c2ccsc2-c2ccsc2)c1 label 0

# fetch the recorded call for O=CN/C=C/c1ccccc1O here label 0

I would be grateful if you could indicate the recorded call for COc1ccc(/C=C2\CCCC(CN(C)C)C2=O)cc1 (stereo not given) . label 1

GET /call?item= CC1C(=O)C(C)C(c2ccccc2)N(C)C1c1ccccc1 (stereo not given) returns the recorded outcome of this test. label 0

Identify the outcome logged in this assay for the molecule shown: COc1ccc(C2C(C=O)C(N3CCN(C)CC3)=Nc3nc4ccccc4n32)cc1 (stereo not given) label 0

Hi team, can someone confirm the assay call for O=C(OCc1ccccc1)C(Cc1ccc(OCc2ccccc2)cn1)NC(=O)C(F)(F)F (stereo not given) ? label 0

Origin of measurements: ChEMBL document CHEMBL1201862
